Data origin, for the record: ChEMBL document CHEMBL5523755

- Tested On: Solute carrier family 2, facilitated glucose transporter member 4 (Rattus norvegicus) (UniProt P19357)
- Sequence (P19357 whole entry): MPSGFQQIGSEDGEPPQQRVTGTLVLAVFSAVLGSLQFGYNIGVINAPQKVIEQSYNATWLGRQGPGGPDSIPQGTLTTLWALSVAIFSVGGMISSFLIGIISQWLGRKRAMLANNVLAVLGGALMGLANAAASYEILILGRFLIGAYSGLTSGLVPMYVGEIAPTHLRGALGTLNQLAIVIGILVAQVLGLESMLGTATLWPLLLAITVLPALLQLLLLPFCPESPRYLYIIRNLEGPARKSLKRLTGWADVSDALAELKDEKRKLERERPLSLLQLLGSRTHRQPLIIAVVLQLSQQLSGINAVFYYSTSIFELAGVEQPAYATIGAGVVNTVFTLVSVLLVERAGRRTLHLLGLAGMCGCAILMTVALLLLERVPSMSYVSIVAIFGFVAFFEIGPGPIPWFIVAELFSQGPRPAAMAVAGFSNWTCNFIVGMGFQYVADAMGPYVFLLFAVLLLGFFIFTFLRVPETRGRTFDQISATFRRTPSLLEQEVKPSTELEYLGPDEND
- Test Summary: Induction of GLUT4 translocation in rat L6-GLUT4myc skeletal muscle cells assessed as translocation to cell surface by measuring fold stimulation at 10 uM measured after 1 hr incubation by antibody-coupled colorimetric assay relative to control
- Type: cell-based
- Condition Description: filed as modulator
Endpoint Name: fold change (FC)
Reply briefly: the number, and no unit.

// worked examples, fold change (FC) included
{"columns": ["Molecule", "fold change (FC)"],
 "data": [
  ["CC1=C(C(=O)NCCc2c[nH]c3ccccc23)C(c2ccsc2)C2=C(CCCC2=O)N1 (stereo not drawn)", 1.64],
  ["CCOC(=O)C1=C(C)NC2=C(C(=O)CC(C)(C)C2)C1c1ccc(Cl)c(Cl)c1 (stereo not drawn)", 1.92],
  ["CC1=C(C(=O)NCCc2c[nH]c3ccccc23)C(c2ccco2)C2=C(CCCC2=O)N1 (stereo not drawn)", 1.62],
  ["CC1=C(C(=O)NCCc2c[nH]c3ccccc23)C(c2ccsc2)C2=C(CC(C)(C)CC2=O)N1 (stereo not drawn)", 1.87],
  ["CC1=C(C(=O)NCCc2c[nH]c3ccccc23)C(c2cccc(Cl)c2Cl)C2=C(CC(C)(C)CC2=O)N1 (stereo not drawn)", 1.52]
]}

Prompt: For the molecule shown here, CC1=C(C(=O)NCCc2c[nH]c3ccccc23)C(c2cccc([N+](=O)[O-])c2)C2=C(CCCC2=O)N1 (stereo not drawn) , give the reported fold change (FC).
Response: 1.71

Prompt: For the molecule shown here, CC1=C(C(=O)NCCc2c[nH]c3ccccc23)C(c2ccco2)C2=C(CC(C)(C)CC2=O)N1 (stereo not drawn) , give the reported fold change (FC).
Response: 2.01

Prompt: For the molecule shown here, CCNC(=O)C1=C(C)NC2=C(C(=O)CC(C)(C)C2)C1c1ccc(Cl)c(Cl)c1 (stereo not drawn) , give the reported fold change (FC).
Response: 1.16

Prompt: For the molecule shown here, NCCc1c[nH]c2ccccc12 , give the reported fold change (FC).
Response: 1.08

Prompt: For the molecule shown here, CC1=C(C(=O)NCCc2c[nH]c3ccccc23)C(c2cccc([N+](=O)[O-])c2)C2=C(CC(C)(C)CC2=O)N1 (stereo not drawn) , give the reported fold change (FC).
Response: 1.86

Prompt: For the molecule shown here, COc1cc(C2C(C(=O)NCCc3c[nH]c4ccccc34)=C(C)NC3=C2C(=O)CC(C)(C)C3)cc(OC)c1OC (stereo not drawn) , give the reported fold change (FC).
Response: 1.21

Prompt: For the molecule shown here, CSc1ccc(C2C(C(=O)NCCc3c[nH]c4ccccc34)=C(C)NC3=C2C(=O)CC(C)(C)C3)cc1 (stereo not drawn) , give the reported fold change (FC).
Response: 1.33

Prompt: For the molecule shown here, COc1ccc(C2C(C(=O)NCCc3c[nH]c4ccccc34)=C(C)NC3=C2C(=O)CCC3)cc1OC (stereo not drawn) , give the reported fold change (FC).
Response: 1.48

Prompt: For the molecule shown here, CC1=C(C(=O)NCCc2c[nH]c3ccccc23)C(c2ccc([N+](=O)[O-])cc2)C2=C(CC(C)(C)CC2=O)N1 (stereo not drawn) , give the reported fold change (FC).
Response: 1.72
